Experiment: Stability of peptides in serum (Fetal Bovine Serum), activity remaining
Type: in vitro ADME
Conditions: octapeptides X-SDKPYIL; fraction of peptide activity left after 10 min of incubation in serum at 37° C.
Ends that are not written are not given here.
Stability in serum (activity remaining) less than 0.07 fraction is Yes; Stability in serum (activity remaining) greater than or equal to 0.07 fraction is No.

For orientation, consider the following solved cases.
>  <Residues>
WSDKPYIL [compound 36054]

>  <Label Class>
Yes

$$$$
>  <Residues>
FSDKPYIL [compound 36040]

>  <Label Class>
No

$$$$
>  <Residues>
GSDKPYIL [compound 36041]

>  <Label Class>
No

$$$$

Exercise: Check if Stability in serum (activity remaining) falls below 0.07 fraction for ASDKPYIL [compound 36036] .
Key: No

Exercise: Check if Stability in serum (activity remaining) falls below 0.07 fraction for RSDKPYIL [compound 36050] .
Key: No

Exercise: Check if Stability in serum (activity remaining) falls below 0.07 fraction for LSDKPYIL [compound 36045] .
Key: No

Exercise: Check if Stability in serum (activity remaining) falls below 0.07 fraction for TSDKPYIL [compound 36052] .
Key: Yes

Exercise: Check if Stability in serum (activity remaining) falls below 0.07 fraction for QSDKPYIL [compound 36049] .
Key: No

Exercise: Check if Stability in serum (activity remaining) falls below 0.07 fraction for PSDKPYIL [compound 36048] .
Key: No

Exercise: Check if Stability in serum (activity remaining) falls below 0.07 fraction for MSDKPYIL [compound 36046] .
Key: No

Exercise: Check if Stability in serum (activity remaining) falls below 0.07 fraction for YSDKPYIL [compound 36055] .
Key: Yes

Exercise: Check if Stability in serum (activity remaining) falls below 0.07 fraction for KSDKPYIL [compound 36044] .
Key: Yes

Exercise: Check if Stability in serum (activity remaining) falls below 0.07 fraction for VSDKPYIL [compound 36053] .
Key: Yes

Exercise: Check if Stability in serum (activity remaining) falls below 0.07 fraction for SSDKPYIL [compound 36051] .
Key: Yes
